This collection of values is drawn from patent US20200297760A1.

# tested.target: HLA-A*02:01 (human)
# test.method.notes: REVEAL MHC-peptide binding assay, recombinant HLA
# cond: remark: other sources report otherwise
In Vitro Score (% of positive control peptide) less than 5 is YES; In Vitro Score (% of positive control peptide) greater than or equal to 5 is NO.

      binder  class_assignment
0  IIFWVQRGA                NO
1  IIFWVHRGR               YES
2  IFWVKRGHK               YES
3  IFWVKRGAK                NO
4  IIFWVKRGL                NO
5  IFWVKRGNK               YES
6  AFIIFWVHR               YES
7  IIFWVKRGA                NO
8  IFWVHRGRK                NO
9  VAFIIFWVS                NO
